Record form. Attribute: relative viability. Fill in for each entry.
Tested on: RERF-LC-KJ
Assay: relative viability (nuclei count vs DMSO), 5 days (fraction); higher = more cells survive
Conditions: first compound 0.1265 µM

Past entries and their recorded results:
{"compound": "Cc1sc2c(c1C)C(c1ccc(Cl)cc1)=N[C@@H](CC(=O)OC(C)(C)C)c1nnc(C)n1-2 [JQ1] + CC(C)C[C@H](NC(=O)[C@H](Cc1ccccc1)NC(=O)c1cnccn1)B(O)O [Bortezomib] (partner 0.002 µM)", "target": "RERF-LC-KJ", "readout_label": "relative viability", "result": 1.11}
{"compound": "Cc1sc2c(c1C)C(c1ccc(Cl)cc1)=N[C@@H](CC(=O)OC(C)(C)C)c1nnc(C)n1-2 [JQ1] + NC(=O)Nc1cc(-c2cccc(F)c2)sc1C(=O)N[C@H]1CCCNC1 [AZD7762] (partner 0.2 µM)", "target": "RERF-LC-KJ", "readout_label": "relative viability", "result": 0.803}
{"compound": "Cc1sc2c(c1C)C(c1ccc(Cl)cc1)=N[C@@H](CC(=O)OC(C)(C)C)c1nnc(C)n1-2 [JQ1] + O=C(c1cc(Cc2n[nH]c(=O)c3ccccc23)ccc1F)N1CCN(C(=O)C2CC2)CC1 [Olaparib] (partner 8 µM)", "target": "RERF-LC-KJ", "readout_label": "relative viability", "result": 0.808}
{"compound": "Cc1sc2c(c1C)C(c1ccc(Cl)cc1)=N[C@@H](CC(=O)OC(C)(C)C)c1nnc(C)n1-2 [JQ1] + Nc1ncn([C@H]2C[C@H](O)[C@@H](CO)O2)c(=O)n1 [Decitabine] (partner 2 µM)", "target": "RERF-LC-KJ", "readout_label": "relative viability", "result": 0.532}

# return relative viability for each item in the list
1. Cc1sc2c(c1C)C(c1ccc(Cl)cc1)=N[C@@H](CC(=O)OC(C)(C)C)c1nnc(C)n1-2 [JQ1] + CCNC(=O)c1noc(-c2cc(C(C)C)c(O)cc2O)c1-c1ccc(CN2CCOCC2)cc1 [Luminespib] (partner 0.01 µM)
2. Cc1sc2c(c1C)C(c1ccc(Cl)cc1)=N[C@@H](CC(=O)OC(C)(C)C)c1nnc(C)n1-2 [JQ1] + C[C@]1(O)C[C@@H](c2nc(-c3ccc4ccc(-c5ccccc5)nc4c3)c3c(N)nccn32)C1 [Linsitinib] (partner 1 µM)
3. Cc1sc2c(c1C)C(c1ccc(Cl)cc1)=N[C@@H](CC(=O)OC(C)(C)C)c1nnc(C)n1-2 [JQ1] + N=C(N)NC(=N)NCCc1ccccc1 [Phenformin] (partner 250 µM)
4. Cc1sc2c(c1C)C(c1ccc(Cl)cc1)=N[C@@H](CC(=O)OC(C)(C)C)c1nnc(C)n1-2 [JQ1] + CS(=O)(=O)CCNCc1ccc(-c2ccc3ncnc(Nc4ccc(OCc5cccc(F)c5)c(Cl)c4)c3c2)o1 [Lapatinib] (partner 2 µM)

1.07
1.07
0.374
0.856

----------
System: NCI-H2228
Assay: relative viability (nuclei count vs DMSO), 5 days (fraction); higher = more cells survive
Settings: first compound 0.08 µM
readout_label: relative viability
Numbers only.

Past entries and their recorded results:
{"compound": "Cc1cnc(-c2cnc(NCCNc3ccc(C#N)cn3)nc2-c2ccc(Cl)cc2Cl)[nH]1 + CS(=O)(=O)N1CCN(Cc2cc3nc(-c4cccc5[nH]ncc45)nc(N4CCOCC4)c3s2)CC1 [Pictilisib] (partner 1 µM)", "target": "NCI-H2228", "relative viability": 0.263}
{"compound": "O=c1[nH]c2ccccc2n1C1CCN(CCCC(c2ccc(F)cc2)c2ccc(F)cc2)CC1 [Pimozide] + CC1(C)CCC(c2ccc(Cl)cc2)=C(CN2CCN(c3ccc(C(=O)NS(=O)(=O)c4ccc(N[C@H](CCN5CCOCC5)CSc5ccccc5)c(S(=O)(=O)C(F)(F)F)c4)cc3)CC2)C1 [Navitoclax] (partner 0.5 µM)", "target": "NCI-H2228", "relative viability": 0.758}
{"compound": "O=c1[nH]c2ccccc2n1C1CCN(CCCC(c2ccc(F)cc2)c2ccc(F)cc2)CC1 [Pimozide] + C[C@]1(O)C[C@@H](c2nc(-c3ccc4ccc(-c5ccccc5)nc4c3)c3c(N)nccn32)C1 [Linsitinib] (partner 1 µM)", "target": "NCI-H2228", "relative viability": 0.475}

Please look at the following compound next.
Bench note: what relative viability did O=c1[nH]c2ccccc2n1C1CCN(CCCC(c2ccc(F)cc2)c2ccc(F)cc2)CC1 [Pimozide] + Cc1nc(Nc2ncc(C(=O)Nc3c(C)cccc3Cl)s2)cc(N2CCN(CCO)CC2)n1 [Dasatinib] (partner 0.075 µM) show?
0.524
